Reported Crabgrass plant response rating values for the following compounds.
System: crabgrass
TEST_NAME: Test B pre/postemergence crabgrass
Assay type: in vivo, Digitaria sanguinalis
MEASUREMENT_PARAMETERS: Rate 125 g/ha; Preemergence; scale of 0 to 10 where 0 is no effect and 10 is complete control

>>> result("C=CCCCn1c(=O)on(C(=O)N(c2ccc(F)cc2)C(C)C)c1=O")
0
>>> result("COc1cc(C)cc(C)c1-n1c(=O)on(C(=O)N(c2ccc(F)cc2)C(C)C)c1=O")
6
>>> result("CC(C)N(C(=O)n1oc(=O)n(CCCCF)c1=O)c1ccc(F)cc1")
3

Let us examine a further case.
[ask] Which value of Crabgrass plant response rating has been reported for CCOC(=O)C(C)N(C(=O)n1oc(=O)n(-c2ccccc2C)c1=O)c1ccc(F)cc1 (stereo not shown) in the records?
[reply] 0

---

Tested on: pigweed
TEST_NAME: Test B pre/postemergence pigweed
Assay type: in vivo, Amaranthus retroflexus
MEASUREMENT_PARAMETERS: Postemergence, Rate 125 g/ha; scale of 0 to 10 where 0 is no effect and 10 is complete control
Experimental: […] At the same time, these crop and weed species were also treated with postemergence applications of test chemicals formulated in the same manner. […] Treated plants and controls were maintained in a greenhouse for twelve to sixteen days, after which all species were compared to controls and visually evaluated. […]
Reported Redroot pigweed plant response rating values for the following compounds.
Please reply with the value in numeric form only.

>>> number("CC(C)N(C(=O)n1oc(=O)n(Cc2ccccc2)c1=O)c1ccc(Cl)cc1")
0
>>> number("CCOC(CC)n1c(=O)on(C(=O)N(c2ccccc2)C(C)C)c1=O (stereo not shown)")
0
>>> number("CC(C)N(C(=O)n1oc(=O)n(C[C@H](C)Cl)c1=O)c1ccc(F)cc1F")
8

Let us examine a further case.
[ask] Which value of Redroot pigweed plant response rating has been reported for Cc1noc(C)c1-n1c(=O)on(C(=O)N(c2ccc(F)cc2F)C(C)C)c1=O in the records?
[reply] 0

---

Test system: crabgrass
TEST_NAME: Test B pre/postemergence crabgrass
Assay type: in vivo, Digitaria sanguinalis
MEASUREMENT_PARAMETERS: Postemergence, Rate 125 g/ha; scale of 0 to 10 where 0 is no effect and 10 is complete control
READOUT_LABEL: Crabgrass plant response rating

Use the examples below as a reference point.
>>> result("CC(C)N(C(=O)n1oc(=O)n(Cc2ccccc2Cl)c1=O)C1=CCCCC1 [Compound 145]")
3
>>> result("COP(=O)(CCn1c(=O)on(C(=O)N(c2ccc(F)cc2)C(C)C)c1=O)OC [Compound 662]")
0
>>> result("Cc1ccccc1-n1c(=O)on(C(=O)N(c2c(F)cccc2F)C(C)C)c1=O [Compound 176]")
0
>>> result("CC(CBr)Cn1c(=O)on(C(=O)N(c2ccc(F)cc2)C(C)C)c1=O (stereo not shown) [Compound 752]")
3
>>> result("CC(C)N(C(=O)n1oc(=O)n(C(C)C)c1=O)c1ccccc1 [Compound 113]")
9
>>> result("Cc1noc(C)c1-n1c(=O)on(C(=O)N(c2ccc(F)cc2F)C(C)C)c1=O [Compound 156]")
0

Let us examine a further case.
[ask] Which value of Crabgrass plant response rating has been reported for CC(C)N(C(=O)n1oc(=O)n(Cc2ccccc2)c1=O)c1ccc(Cl)cc1 [Compound 106] in the records?
[reply] 0

---

Tested on: blackgrass
TEST_NAME: Test B pre/postemergence blackgrass
Format: in vivo, Alopecurus myosuroides
MEASUREMENT_PARAMETERS: Postemergence, Rate 62 g/ha; scale 0 to 10, 0 is no effect, 10 is complete control
Reported Plant response rating, Blackgrass values for the following compounds.

Use the examples below as a reference point.
>>> result("C#CC(C)n1c(=O)on(C(=O)N(c2ccccc2)C(C)C)c1=O (stereo not drawn)")
5
>>> result("CC(C)N(C(=O)n1oc(=O)n(CC(C)[N+](=O)[O-])c1=O)c1ccc(F)cc1F (stereo not drawn)")
0
>>> result("CC(C)N(C(=O)n1oc(=O)n(C(C)C(=S)N(C)C)c1=O)c1ccc(F)cc1F (stereo not drawn)")
0
>>> result("C=C(Cl)Cn1c(=O)on(C(=O)N(c2ccccc2)C(C)C)c1=O")
4
>>> result("CC(C)N(C(=O)n1oc(=O)n(CCC(=O)N(C)C)c1=O)c1ccc(F)cc1")
0

[ask] Which value of Plant response rating, Blackgrass has been reported for CC(CBr)Cn1c(=O)on(C(=O)N(c2ccc(F)cc2)C(C)C)c1=O (stereo not drawn) in the records?
[reply] 0

---

System: blackgrass
TEST_NAME: Test B pre/postemergence blackgrass
Type: in vivo, Alopecurus myosuroides
MEASUREMENT_PARAMETERS: Rate 500 g/ha, Postemergence; scale 0 to 10, 0 no effect, 10 complete control
READOUT_LABEL: Plant response rating, Blackgrass

Use the examples below as a reference point.
>>> result("COCC(C)n1c(=O)on(C(=O)N(c2ccc(F)cc2F)C(C)C)c1=O (centres unmarked)")
7
>>> result("CC(C)N(C(=O)n1oc(=O)n(C2CCC2)c1=O)c1ccc(F)cc1F")
4
>>> result("CC(C)N(C(=O)n1oc(=O)n(N2C(C)CCCC2C)c1=O)c1ccc(F)cc1F (centres unmarked)")
8

[ask] Which value of Plant response rating, Blackgrass has been reported for CC(C)N(C(=O)n1oc(=O)n(CC2CCOC2)c1=O)c1ccc(F)cc1 (centres unmarked) in the records?
[reply] 8

[ask] Which value of Plant response rating, Blackgrass has been reported for CC1CC1n1c(=O)on(C(=O)N(c2ccc(F)cc2F)C(C)C)c1=O (centres unmarked) in the records?
[reply] 10

---

Reported Plant response rating, Soybean values for the following compounds.
Tested on: soybean
TEST_NAME: Test B pre/postemergence soybean
Format: in vivo, Glycine max
MEASUREMENT_PARAMETERS: Preemergence, Rate 500 g/ha; scale of 0 to 10 where 0 is no effect and 10 is complete control

>>> result("CC(C)N(C(=O)n1oc(=O)n(CCC2OCCO2)c1=O)c1ccc(F)cc1")
0
>>> result("CC(C)N(C(=O)n1oc(=O)n(CC(C)[N+](=O)[O-])c1=O)c1ccc(F)cc1F (stereo not shown)")
0
>>> result("COP(=O)(CCn1c(=O)on(C(=O)N(c2ccc(F)cc2)C(C)C)c1=O)OC")
0

[ask] Which value of Plant response rating, Soybean has been reported for CCCCCCn1c(=O)on(C(=O)N(c2ccc(F)cc2F)C(C)C)c1=O in the records?
[reply] 0

---

Tested on: surinam grass
TEST_NAME: Test B pre/postemergence surinam grass
Assay type: in vivo, Brachiaria decumbens
MEASUREMENT_PARAMETERS: Postemergence, Rate 125 g/ha; scale of 0 to 10 where 0 is no effect and 10 is complete control
Reported B. signalgrass plant response rating values for the following compounds.
Please reply with the value in numeric form only.

>>> number("COC(=O)C(CCO)n1c(=O)on(C(=O)N(c2ccc(Cl)cc2)C(C)C)c1=O (stereo not shown)")
0
>>> number("Cc1ccccc1-n1c(=O)on(C(=O)N(c2cccc(F)c2F)C(C)C)c1=O")
0
>>> number("CC(C)N(C(=O)n1oc(=O)n(C[C@H](C)Cl)c1=O)c1ccc(F)cc1F")
2

Let us examine a further case.
[ask] Which value of B. signalgrass plant response rating has been reported for CC(C)N(C(=O)n1oc(=O)n(CCCCl)c1=O)c1ccc(F)cc1 in the records?
[reply] 3

---

System: blackgrass
TEST_NAME: Test B pre/postemergence blackgrass
Assay type: in vivo, Alopecurus myosuroides
MEASUREMENT_PARAMETERS: Postemergence, Rate 250 g/ha; scale 0 to 10, 0 no effect, 10 complete control
READOUT_LABEL: Blackgrass plant response rating

>>> result("COc1ccc(-n2c(=O)on(C(=O)N(c3ccc(F)cc3)C(C)C)c2=O)cc1")
5
>>> result("CCN(CC)C(=O)n1oc(=O)n(-c2ccc(F)cc2)c1=O")
0

[ask] Which value of Blackgrass plant response rating has been reported for COc1cccc(C)c1-n1c(=O)on(C(=O)N(c2ccccc2)C(C)C)c1=O in the records?
[reply] 0

[ask] Which value of Blackgrass plant response rating has been reported for COc1ccc(-n2c(=O)on(C(=O)N(c3ccc(F)cc3)C(C)C)c2=O)c(OC)c1 in the records?
[reply] 5

[ask] Which value of Blackgrass plant response rating has been reported for CN(C(=O)n1oc(=O)n(Cc2cccs2)c1=O)c1ccccc1 in the records?
[reply] 0

[ask] Which value of Blackgrass plant response rating has been reported for CC(C)N(C(=O)n1oc(=O)n(-c2ccc(F)cc2F)c1=O)c1ccc(F)cc1F in the records?
[reply] 3

[ask] Which value of Blackgrass plant response rating has been reported for Cc1nn(C)c(C)c1-n1c(=O)on(C(=O)N(c2ccc(F)cc2F)C(C)C)c1=O in the records?
[reply] 6
